Target or system UniProt P37288: recorded Ki listed per item.
Sequence (P37288 whole entry): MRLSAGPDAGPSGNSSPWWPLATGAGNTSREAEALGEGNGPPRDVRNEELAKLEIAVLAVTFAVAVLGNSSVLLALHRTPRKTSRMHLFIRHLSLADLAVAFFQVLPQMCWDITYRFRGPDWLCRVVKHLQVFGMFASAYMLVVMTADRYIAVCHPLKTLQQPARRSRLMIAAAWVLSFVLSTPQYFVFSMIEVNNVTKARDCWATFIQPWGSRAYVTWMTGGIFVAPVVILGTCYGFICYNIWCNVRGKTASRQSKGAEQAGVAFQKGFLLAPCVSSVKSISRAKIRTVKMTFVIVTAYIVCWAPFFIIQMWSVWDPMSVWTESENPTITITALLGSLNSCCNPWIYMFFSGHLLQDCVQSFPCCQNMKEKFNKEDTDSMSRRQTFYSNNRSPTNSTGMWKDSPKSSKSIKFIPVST
*1 amine or outer side, *2 acyl side, *3 side chain or, on linkers, in order; H or OH if unused. Where a SMILES comes first, the peptide text is derived from it. Bridges are numbered along the chain shown (N, C = ends). [ ]: non-standard residue; d: D form. The star is where a group is joined. 6FAM = O=C1OC2(c3ccc(O)cc3Oc3cc(O)ccc32)c2cc(C(=O)*)ccc21; X4 = O=C(CC1(S[*:2])CCCCC1)[*:1]; Orn = NCCC[C@H](N)C(=O)O; Mpa = O=C(O)CCS
Write the value in nM as a bare number.

INSERT INTO assay_data (compound, value_type, unit_abbreviation, observed) VALUES
  ('CC[C@H](C)[C@@H]1NC(=O)[C@H](Cc2ccc(OC)cc2)NC(=O)CC2(CCCCC2)SSC[C@@H](C(=O)N2CCC[C@H]2C(=O)N[C@@H](CCCN)C(=O)N[C@@H](Cc2ccc(O)cc2)C(N)=O)NC(=O)[C@H](CC(N)=O)NC(=O)[C@H]([C@@H](C)O)NC1=O (Y(Me)ITNCP[Orn]Y-NH2; linker N-5 via X4)', 'Ki', 'nM', 3.9),
  ('CC[C@H](C)[C@@H]1NC(=O)[C@H](Cc2ccc(O)cc2)NC(=O)CCSSC[C@@H](C(=O)N2CCC[C@H]2C(=O)N[C@@H](CCCCNC(=O)c2ccc3c(c2)C2(OC3=O)c3ccc(O)cc3Oc3cc(O)ccc32)C(=O)NCC(N)=O)NC(=O)[C@H](CC(N)=O)NC(=O)[C@H](CCC(N)=O)NC1=O ([Mpa]YIQNCPK(6FAM)G-NH2; disulfide 1-6)', 'Ki', 'nM', 57);

// next item, Ki requested
Enquiry: Find the measured Ki: item CC[C@H](C)[C@@H]1NC(=O)[C@H](Cc2ccc(O)cc2)NC(=O)CCSSC[C@@H](C(=O)N2CCC[C@H]2C(=O)N[C@@H](CCCNC(=O)c2ccc3c(c2)C2(OC3=O)c3ccc(O)cc3Oc3cc(O)ccc32)C(=O)NCC(N)=O)NC(=O)[C@H](CC(N)=O)NC(=O)[C@H](CCC(N)=O)NC1=O ([Mpa]YIQNCP[Orn](6FAM)G-NH2; disulfide 1-6) , target or system UniProt P37288.
Return: 107

* * *

compounds and their reported Ki
Target: Vasopressin V1b receptor (Homo sapiens, UniProt P47901)
Sequence (P47901 whole entry): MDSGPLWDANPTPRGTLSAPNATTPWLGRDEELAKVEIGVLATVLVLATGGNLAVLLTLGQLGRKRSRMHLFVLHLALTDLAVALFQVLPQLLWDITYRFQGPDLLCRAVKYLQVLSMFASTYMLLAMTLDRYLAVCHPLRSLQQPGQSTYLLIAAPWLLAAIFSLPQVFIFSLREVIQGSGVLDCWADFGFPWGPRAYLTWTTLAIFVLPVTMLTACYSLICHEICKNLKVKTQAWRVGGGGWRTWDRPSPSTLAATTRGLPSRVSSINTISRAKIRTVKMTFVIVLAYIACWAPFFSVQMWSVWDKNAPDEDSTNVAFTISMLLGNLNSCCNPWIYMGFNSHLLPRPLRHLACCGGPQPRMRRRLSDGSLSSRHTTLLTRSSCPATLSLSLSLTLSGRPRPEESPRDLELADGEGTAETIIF
*1 amine or outer side, *2 acyl side, *3 side chain or, on linkers, in order; H or OH if unused. Where a SMILES comes first, the peptide text is derived from it. Bridges are numbered along the chain shown (N, C = ends). [ ]: non-standard residue; d: D form. The star is where a group is joined. 6FAM = O=C1OC2(c3ccc(O)cc3Oc3cc(O)ccc32)c2cc(C(=O)*)ccc21; X1 = O=C([C@@H](O)CS[*:2])[*:1]; Orn = NCCC[C@H](N)C(=O)O; Mpa = O=C(O)CCS
Write the value in nM as a bare number.

INSERT INTO measurements (compound, value_type, observed) VALUES
  ('CC[C@H](C)[C@@H]1NC(=O)[C@H](Cc2ccc(O)cc2)NC(=O)[C@@H](O)CSSC[C@@H](C(=O)N2CCC[C@H]2C(=O)N[C@@H](CCCCNC(=O)c2ccc3c(c2)C2(OC3=O)c3ccc(O)cc3Oc3cc(O)ccc32)C(=O)NCC(N)=O)NC(=O)[C@H](CC(N)=O)NC(=O)[C@H](CCC(N)=O)NC1=O (YIQNCPK(6FAM)G-NH2; linker N-5 via X1)', 'Ki', 66);

// next item, Ki requested
Enquiry: Look up Ki for this compound: CC[C@H](C)[C@@H]1NC(=O)[C@H](Cc2ccc(O)cc2)NC(=O)CCSSC[C@@H](C(=O)N2CCC[C@H]2C(=O)N[C@@H](CCCNC(=O)c2ccc3c(c2)C2(OC3=O)c3ccc(O)cc3Oc3cc(O)ccc32)C(=O)NCC(N)=O)NC(=O)[C@H](CC(N)=O)NC(=O)[C@H](CCC(N)=O)NC1=O ([Mpa]YIQNCP[Orn](6FAM)G-NH2; disulfide 1-6)
Return: 393
